# target_under_test: human PGD receptor (Homo sapiens, UniProt Q13258)
# Sequence (Q13258 whole entry): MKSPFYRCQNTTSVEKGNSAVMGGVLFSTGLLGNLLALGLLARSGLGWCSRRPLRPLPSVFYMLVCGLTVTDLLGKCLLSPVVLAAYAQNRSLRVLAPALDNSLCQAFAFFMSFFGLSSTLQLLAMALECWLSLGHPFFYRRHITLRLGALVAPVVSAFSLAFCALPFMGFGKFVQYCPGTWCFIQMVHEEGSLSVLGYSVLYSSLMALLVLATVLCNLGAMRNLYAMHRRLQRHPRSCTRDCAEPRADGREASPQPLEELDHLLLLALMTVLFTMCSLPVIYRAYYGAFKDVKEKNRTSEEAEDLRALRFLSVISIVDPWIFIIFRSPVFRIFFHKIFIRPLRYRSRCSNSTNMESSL
# assay_comment: cAMP antagonism test on the human prostaglandin D receptor (HTRF cAMP detection)
# Format: cell-based
# condition_details: selectivity towards hDP, IC50 measured by cAMP antagonism test
# From the text: 3. Detection of Antagonism to the Human Prostaglandin D Receptor Signal The binding of prostaglandin D2 to the human PGD receptor induces the activation of membrane-located adenylate cyclases and leads to the formation of cAMP. […] In this test, the cAMP present in the lysate competes with a fluorescence-labelled cAMP (cAMP-d2) for binding to an Eu cryptate-labelled anti-cAMP antibody. […]
recorded_endpoint: Selectivity hEP2/hDP

Cc1c(C(=O)NCC(F)(F)F)ccc2nn(CC3CCN(C(=O)c4ccc(-c5ccc(Cl)cn5)cc4)CC3)cc12 : xx (xx: 10-100)
Cc1c(C(=O)NCCOC(F)(F)F)ccc2nn(CC3CCN(C(=O)c4ccc(Oc5ccc(F)cc5)cc4)CC3)cc12 : xxx (xxx > 100)
Cc1ccc(Oc2ccc(C(=O)N3CCC(Cn4cc5c(C)c(C(=O)NCC(F)(F)F)ccc5n4)CC3)cc2)cc1 : xxx (xxx > 100)
COCCNC(=O)c1ccc2nn(CC3CCN(C(=O)c4ccc(S(C)(=O)=O)cc4F)CC3)cc2c1C : xx (xx: 10-100)
COCCNC(=O)c1ccc2nn(CC3CCN(C(=O)c4ccc(Cl)cc4)CC3)cc2c1OC(F)F : xxx (xxx > 100)
Cc1c(C(=O)NCC(F)(F)F)ccc2nn(CC3CCN(C(=O)c4ccc(-c5ccc(C(F)(F)F)cc5)cc4)CC3)cc12 : xxx (xxx > 100)
CCOc1c(C(=O)NCCOC)ccc2nn(CC3CCN(C(=O)c4ccc(Cl)cc4)CC3)cc12 : xxx (xxx > 100)
Cc1c(C(=O)NCC(F)(F)F)ccc2nn(CC3CCN(C(=O)c4cnc(-c5ccccc5)o4)CC3)cc12 : xxx (xxx > 100)
Cc1c(C(=O)NCC(F)(F)F)ccc2nn(CC3CN(C(=O)c4ccc(-c5ccc(F)cc5)cc4)C3)cc12 : xxx (xxx > 100)
COc1ccc2cc(C(=O)N3CC(Cn4cc5c(C)c(C(=O)NCC(F)(F)F)ccc5n4)C3)n(C)c2c1 : xxx (xxx > 100)

Lab book: Selectivity hEP2/hDP of `Cc1cc2nn(CC3CN(C(=O)c4ccc(S(F)(F)(F)(F)F)cc4)C3)cc2cc1C(=O)NCCSC(F)(F)F` noted as xxx (xxx > 100)

Lab book: Selectivity hEP2/hDP of `COCCNC(=O)c1ccc2nn(CC3CCN(C(=O)c4ccc(-c5ccc(C)nc5)cc4)CC3)cc2c1C` noted as xxx (xxx > 100)

Lab book: Selectivity hEP2/hDP of `COCCNC(=O)c1ccc2nn(CC3CN(C(=O)c4cc5cc(Cl)ccc5n4C)C3)cc2c1C` noted as xxx (xxx > 100)

Lab book: Selectivity hEP2/hDP of `COCCNC(=O)c1ccc2nn(CC3CN(C(=O)c4ccc(C5CC5)cc4)C3)cc2c1C` noted as xxx (xxx > 100)

Lab book: Selectivity hEP2/hDP of `COCCNC(=O)c1ccc2nn(CC3CCN(C(=O)c4ccc(Oc5cccc(C(F)(F)F)c5)cc4)CC3)cc2c1C` noted as xxx (xxx > 100)

====

# target_under_test: EP2 subtype of the human PGE2 receptor (Homo sapiens)
# Sequence (P43116 whole entry): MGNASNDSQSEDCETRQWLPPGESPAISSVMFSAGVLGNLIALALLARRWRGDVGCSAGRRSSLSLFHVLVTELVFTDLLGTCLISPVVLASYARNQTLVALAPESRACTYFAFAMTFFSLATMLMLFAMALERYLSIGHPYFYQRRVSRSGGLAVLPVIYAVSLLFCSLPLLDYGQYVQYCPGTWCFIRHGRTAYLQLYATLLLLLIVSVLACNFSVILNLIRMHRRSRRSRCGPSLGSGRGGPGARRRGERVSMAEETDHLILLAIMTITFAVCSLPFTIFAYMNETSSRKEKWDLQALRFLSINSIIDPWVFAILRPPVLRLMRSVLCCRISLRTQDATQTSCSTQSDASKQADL
# assay_comment: cAMP antagonism test on the human EP2 receptor (HTRF cAMP detection)
# Assay type: cell-based
# condition_details: hEP2 receptor, read-out: Antagonism hEP2 IC50
recorded_endpoint: pIC50
# pIC50 = -log10(concentration in molar units)

Some entries whose results are on file:
COCCNC(=O)c1ccc2nn(CC3CCN(C(=O)c4ccc(-c5cncc(F)c5)cc4)CC3)cc2c1C : 7.59
COCCNC(=O)c1cc2cn(CC3CN(C(=O)c4cc(F)cc(F)c4)C3)nc2cc1C : 5.58
COCCNC(=O)c1ccc2nn(CC3CN(C(=O)c4ccc(OC(F)(F)F)cc4)C3)cc2c1C : 7.88
Cc1c(C(=O)NCC2COCCO2)ccc2nn(CC3CCN(C(=O)c4ccc(Oc5ccc(C(F)(F)F)cc5)cc4)CC3)cc12 (racemic) [Example 249] : 7.95

Switching to the query record.
Lab book: pIC50 of `Cc1c(C(=O)NCC(C)C)ccc2nn(CC3CCN(C(=O)c4ccc(Cl)cc4)CC3)cc12` noted as 6.47
